# System: Cryptococcus neoformans
# testDetails: Antifungal activity against Cryptococcus neoformans after 48 hrs by broth microdilution technique
# Type: functional
readoutType: MIC (µg/mL)
Write the number in µg/mL without appending the unit.

compound: CN(CCC(Oc1ccc(C(F)(F)F)cc1)c1ccccc1)CC(O)CSC(=S)N1CCCCC1 (stereo not given)
testSystem: Cryptococcus neoformans
readoutType: MIC
observedMeasurement: 25
--
compound: CNCCC(Oc1ccc(C(F)(F)F)cc1)c1ccccc1 (stereo not given) [FLUOXETINE]
testSystem: Cryptococcus neoformans
readoutType: MIC
observedMeasurement: 25
--
compound: CCN(CC)CCSC(=S)N(C)CCC(Oc1ccc(C(F)(F)F)cc1)c1ccccc1 (stereo not given)
testSystem: Cryptococcus neoformans
readoutType: MIC
observedMeasurement: 50
--
compound: CN(CCC(Oc1ccc(C(F)(F)F)cc1)c1ccccc1)C(=S)SCCN1CCCC1 (stereo not given)
testSystem: Cryptococcus neoformans
readoutType: MIC
observedMeasurement: 3.12

Next compound, please.
Exam item: Indicate the recorded MIC value for this compound: CN1CCN(CC(O)CSC(=S)N(C)CCC(Oc2ccc(C(F)(F)F)cc2)c2ccccc2)CC1 (stereo not given)
Marked response: 25

###

# testDetails: Spermicidal activity in liquefied human semen assessed as drug level required to kill 100% sperm in 20 seconds
# Assay type: functional
readoutType: MEC (%)
Write the number in % without appending the unit.

Guide cases for MEC, answers given:
compound: CN(CCC(Oc1ccc(C(F)(F)F)cc1)c1ccccc1)C(=S)[S-].[Na+] (stereo not given)
readoutType: MEC
unitName: %
observedMeasurement: 1

compound: CCCCCCCCCc1ccc(OCCOCCOCCOCCOCCOCCOCCOCCOCCO)cc1 [NONOXYNOL 9]
readoutType: MEC
unitName: %
observedMeasurement: 0.05

compound: CN1CCN(CC(O)CSC(=S)N(C)CCC(Oc2ccc(C(F)(F)F)cc2)c2ccccc2)CC1 (stereo not given)
readoutType: MEC
unitName: %
observedMeasurement: 0.5

compound: CN(CCC(Oc1ccc(C(F)(F)F)cc1)c1ccccc1)C(=S)SCCCl (stereo not given)
readoutType: MEC
unitName: %
observedMeasurement: 1

Exam item: Indicate the recorded MEC value for this compound: CN(CCC(Oc1ccc(C(F)(F)F)cc1)c1ccccc1)C(=S)SCC(O)CN1CCCCCC1 (stereo not given)
Marked response: 0.5

###

MIC by entry:
# Test system: Sporothrix schenckii
# testDetails: Antifungal activity against Sporothrix schenckii after 48 hrs by broth microdilution technique
# Format: functional
For clarity, give the value followed by its unit.

Guide cases for MIC, answers given:
compound: CN(CCC(Oc1ccc(C(F)(F)F)cc1)c1ccccc1)C(=S)SCCCl (centres undefined)
readoutType: MIC
observedMeasurement: 25 µg/mL
--
compound: CN1CCN(CC(O)CSC(=S)N(C)CCC(Oc2ccc(C(F)(F)F)cc2)c2ccccc2)CC1 (centres undefined)
readoutType: MIC
observedMeasurement: 25 µg/mL
--
compound: CN(CCC(Oc1ccc(C(F)(F)F)cc1)c1ccccc1)C(=S)SCC(O)CN1CCCC1 (centres undefined)
readoutType: MIC
observedMeasurement: 50 µg/mL
--
compound: CN(CCC(Oc1ccc(C(F)(F)F)cc1)c1ccccc1)CC(O)CSC(=S)N1CCOCC1 (centres undefined)
readoutType: MIC
observedMeasurement: 25 µg/mL
--
compound: CN(CCC(Oc1ccc(C(F)(F)F)cc1)c1ccccc1)C(=S)SCCN1CCCCC1 (centres undefined)
readoutType: MIC
observedMeasurement: 6.25 µg/mL
--
compound: CN(C)CCSC(=S)N(C)CCC(Oc1ccc(C(F)(F)F)cc1)c1ccccc1 (centres undefined)
readoutType: MIC
observedMeasurement: 12.5 µg/mL
--
compound: CCN(CC)CCSC(=S)N(C)CCC(Oc1ccc(C(F)(F)F)cc1)c1ccccc1 (centres undefined)
readoutType: MIC
observedMeasurement: 6.25 µg/mL
--
compound: CNCCC(Oc1ccc(C(F)(F)F)cc1)c1ccccc1 (centres undefined) [FLUOXETINE]
readoutType: MIC
observedMeasurement: 50 µg/mL

Next compound, please.
Exam item: Indicate the recorded MIC value for this compound: CN(CCC(Oc1ccc(C(F)(F)F)cc1)c1ccccc1)C(=S)SCCN1CCCC1 (centres undefined)
Marked response: 25 µg/mL
